Answer each item with its documented pIC50.
test-system: human B1 (Homo sapiens, UniProt P46663)
Sequence (P46663 whole entry): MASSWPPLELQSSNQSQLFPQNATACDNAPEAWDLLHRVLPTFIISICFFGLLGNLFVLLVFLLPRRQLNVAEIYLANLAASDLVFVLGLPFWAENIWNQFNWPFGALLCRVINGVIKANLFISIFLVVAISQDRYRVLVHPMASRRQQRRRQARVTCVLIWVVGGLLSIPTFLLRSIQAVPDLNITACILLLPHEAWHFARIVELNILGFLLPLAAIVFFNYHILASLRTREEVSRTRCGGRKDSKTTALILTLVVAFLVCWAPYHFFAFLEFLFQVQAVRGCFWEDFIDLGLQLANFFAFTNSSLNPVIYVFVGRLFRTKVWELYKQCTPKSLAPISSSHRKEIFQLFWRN
measurement-notes: Calcium flux assay for Bradykinin B1 antagonist, CHO-K1 cell line expressing human B1
measurement-parameters: CHO-K1 cells expressing human B1, agonist Lys-(Des-Arg)-Bradykinin, read-out: Potency (IC50 value against human B1)
pIC50: −log10 of the molar value. Where a name gives a salt, the structure may show the parent alone.

Request: Please give the measured pIC50 for this compound: COc1cc(C)c(S(=O)(=O)N(C)Cc2nc(C(=O)N(C)Cc3ccc(C4=NCCN4)cc3)cs2)c(C)c1
Response: 6.00 to 7.00

Request: Please give the measured pIC50 for this compound: COc1cc(C)c(S(=O)(=O)N(Cc2nc(C(=O)N3CCC(C(=O)N4CCN(C)CC4)CC3)co2)C2CC2)c(C)c1 [Ex 229, trifluoroacetate]
Response: 6.00 to 7.00

Request: Please give the measured pIC50 for this compound: COc1cc(C)c(S(=O)(=O)N(Cc2nc(C(=O)N(C)Cc3ccc(CN4CCC(OC)CC4)cc3)co2)C2CC2)c(C)c1
Response: > 8.00

Request: Please give the measured pIC50 for this compound: COc1cc(C)c(S(=O)(=O)N(Cc2cc(C(=O)N3CCN(CCc4ccccn4)CC3)co2)C2CC2)c(C)c1 [Ex 114, trifluoroacetate]
Response: 6.00 to 7.00

Request: Please give the measured pIC50 for this compound: CN(Cc1ccc(CN2CCCC2)cc1)C(=O)c1coc(CN(C2CC2)S(=O)(=O)c2c(Cl)cc(Cl)cc2Cl)n1 [Ex 216, trifluoroacetate]
Response: 6.00 to 7.00

Request: Please give the measured pIC50 for this compound: COc1cc(C)c(S(=O)(=O)N(Cc2nc(C(=O)N3CCC(O)(CN4CCOCC4)CC3)co2)C2CC2)c(C)c1 [Ex 224, trifluoroacetate]
Response: 7.00 to 8.00

Request: Please give the measured pIC50 for this compound: COc1cc(C)c(S(=O)(=O)N(Cc2nc(C(=O)N3CCN(Cc4cccnc4N)CC3)co2)C2CC2)c(C)c1
Response: > 8.00
